Hey, just so you know, these numbers are from PubChem BioAssay (NCI).

system: SW-620 colon; assay: NCI tumour cell line growth inhibition, 48 h
OBSERVABLE: TGI

MOLECULE | TGI
O=C1NC(O)n2c(=O)[nH]c(=O)n21 (stereo not given) | > 100 µM
COC(=O)[C@]1(c2cc3ccccc3n2S(=O)(=O)c2ccccc2)CC2CN(C(=O)OCc3ccccc3)C1C1OC(C)(C)OC21 (stereo not given in full) | > 100 µM
CC1CCC2C(C)C(=O)OC2C2(C)C(=O)C=CC12 (stereo not given) | > 10 µM
O=C1c2ccccc2-c2nc3ccncc3n21 | > 100 µM

Below: the item to evaluate.
Problem: Any idea what its TGI is? The molecule is COc1ccccc1NC(=O)C(=O)C(C(=O)c1ccccc1F)C1OC(=O)c2ccccc21 (stereo not given)
Result: > 100 µM

###

tested on: HS 578T breast; assay: NCI tumour cell line growth inhibition, 48 h
OBSERVABLE: TGI

Guide cases for TGI, answers given:
MOLECULE | OBSERVABLE | EXPERIMENTAL_RESULT
CN1CCN(C(=O)c2cn(Cc3cncn3Cc3ccc4c(c3)OCO4)cc2-c2cccc3ccccc23)CC1 | TGI | > 100 µM
COC1=CC(=O)O/C1=C(\OC)C1OC1c1ccccc1 (stereo not given) | TGI | > 100 µM
COc1cc2c(cc1OC)C(=O)N(c1ccc(OCCN3CCCC3)cc1)C2 | TGI | > 100 µM
CN1CCN(C2=NC(=O)/C(=C\c3ccc(N(C)C)cc3)S2)CC1 | TGI | > 100 µM
NC(=O)[C@H](Cc1ccc(O)cc1)Nc1c(O)c2c(c(O)c1Cl)C(=O)C=CC2=O | TGI | > 9.16 µM

Turning now to a further molecule:
Problem: Tell me the measured TGI of CSC(SC)=C(C(=O)c1ccc(Cl)cc1)n1c(=O)sc2cc(Br)ccc21 , please.
Result: > 100 µM

###

Each entry below carries its recorded TGI.
system: MDA-MB-231 breast; test: NCI tumour cell line growth inhibition, 48 h

Answered examples (4):
COMPOUND | TGI
Cn1/c(=N\N=C2\C=C3CCCCC3(C)CC2)sc2ccccc21 (stereo not given) | > 100 µM
CC(C)(C)C(=O)Nc1c(C=O)ccc2[nH]cnc12 | > 100 µM
O=c1[nH]c(C2CCCN2)nc2c1oc1ccc(Cl)cc12 (stereo not given) | > 100 µM
CSC(SC)=C(C(=O)c1ccc(Cl)cc1)n1c(=O)sc2cc(Br)ccc21 | > 100 µM

Problem: Consider the compound shown here: O=C(O)c1c(CC(Cc2ccc3c(c2)CCC3)C(=O)O)ccc2c1CCC2 (stereo not given) What is its recorded TGI?
Result: > 100 µM

###

tested on: OVCAR-8 ovarian; test: NCI tumour cell line growth inhibition, 48 h; in the data active means GI50 below about 0.43 µM; inactive means the rest
Respond using exactly one of the listed classes: Y (active), N (inactive)

Examples with answers:
COMPOUND | CLASS_ASSIGNMENT
COc1ccc(-c2ccc(C3CC(c4ccccc4)=NN3)o2)c([N+](=O)[O-])c1 (centres undefined) | N
CCC[CH2][Sn-]([CH2]CCC)([CH2]CCC)[O]C(=O)C(C)C | Y
CCOC(=O)NC(=S)N(CC(=O)c1cc(OC)c(OC)c(OC)c1)c1ccc(Cl)cc1 | N
CC(C)(C)C[C@H]1N[C@@H](C(=O)NC2CCC(O)CC2)[C@H](c2cccc(Cl)c2F)[C@@]12C(=O)Nc1cc(Cl)ccc12 (some centres undefined) | N

Problem: Answer briefly: the call reported for CN(C)CCC(=O)Nc1ccc(-n2cc(-c3cccc(NC(=S)Nc4cccc(-c5cn(-c6ccc(NC(=O)CCN(C)C)cc6)nn5)c4)c3)nn2)cc1 in this assay.
Result: N

Problem: Tell me the recorded outcome of this test for COc1cccc(-c2cc(C(=O)Nc3ccc(/C=C/c4ccc(OC5CCN(C)CC5)cc4)cc3)ccc2OC)c1 .
Result: N

Problem: Answer briefly: the call reported for Cc1cccc(N2C(=O)/C(=C/C(Cl)=C/c3ccc([N+](=O)[O-])cc3)SC2=S)c1C in this assay.
Result: N

Problem: Which outcome was entered for the compound O=S(=O)(NC1=NCCN1C(=S)SN1CCn2c1nsc2=S)c1ccc(Cl)cc1 in this test?
Result: N

Problem: GET /call?item= COc1cc2c(cc1OCCNC(=O)/C=C1\C[C@H]3C=Nc4cc(OCc5ccccc5)c(OC)cc4C(=O)N3C1)N=C[C@@H]1CCCN1C2=O returns the recorded outcome of this test.
Result: N
